Numbers sourced from PubChem BioAssay AID463173.

System: Wild type
Assay: S. aureus survival, RN4220 and DeltatarO strains – OD600, teichoic acid synthesis inhibitors, primary screen (AID 463173)
Details: S. aureus RN4220 wild type/DeltatarO growth, OD600, 18 h, screened at 18.75 µg/mL (by protocol)
About 1,700 (3.3%) of roughly 52,000 compounds were called active. Cut-off read from the data, not from the text of the source: active = survival mostly below about 52% (no sharp cut-off); inactive = mostly above about 56%. What follows is part of a selection rich in actives, with near analogues and random picks from the rest.
Outcome codes: active, inactive

[
  {
    "compound": "Cc1cc(C)c2c(c1)NC(=O)C2(O)c1c[nH]c2ccccc12 (stereo not given)",
    "category-label": "inactive"
  },
  {
    "compound": "CCSc1nc2ccccc2c(OCc2ccccc2Cl)c1C(=O)OC",
    "category-label": "inactive"
  },
  {
    "compound": "CCc1ccc(Sc2cc(C(=O)NCCCN3CCC(C)CC3)c3ccccc3n2)cc1",
    "category-label": "inactive"
  },
  {
    "compound": "COc1cccc(N2CCN(C(=O)CCn3nc(C)c(S(=O)(=O)N4CCCC4)c3C)CC2)c1",
    "category-label": "inactive"
  },
  {
    "compound": "CC1CCCCN1CCCNC(=O)c1cc(Sc2ccc(Cl)cc2)nc2ccccc12 (stereo not given)",
    "category-label": "inactive"
  },
  {
    "compound": "CCCOc1ccc(C(=O)Nc2ccc3nn(-c4ccc(OC)c(Cl)c4)nc3c2)cc1",
    "category-label": "inactive"
  },
  {
    "compound": "CC(C)(C)OC(=O)N1CCC(c2c(C(=O)N3CCN(C(=O)c4ccco4)CC3)cnn2-c2cccc(Cl)c2)CC1",
    "category-label": "inactive"
  },
  {
    "compound": "O=C(NCCCN1CCCCC1)c1cc(Sc2ccc(Cl)cc2)nc2ccccc12",
    "category-label": "active"
  },
  {
    "compound": "C#CCn1c(O)c(N=NC(=O)c2ccncc2)c2cc(Br)ccc21",
    "category-label": "inactive"
  },
  {
    "compound": "O=C(CSC1=Nc2ccccc2N=C(c2ccc(F)cc2)C1)Nc1ccc(Cl)cc1",
    "category-label": "inactive"
  }
]
